MEASUREMENT_TARGET: NudC (Escherichia coli)
Construct: homodimer by known biology
Sequence (P32664 whole entry): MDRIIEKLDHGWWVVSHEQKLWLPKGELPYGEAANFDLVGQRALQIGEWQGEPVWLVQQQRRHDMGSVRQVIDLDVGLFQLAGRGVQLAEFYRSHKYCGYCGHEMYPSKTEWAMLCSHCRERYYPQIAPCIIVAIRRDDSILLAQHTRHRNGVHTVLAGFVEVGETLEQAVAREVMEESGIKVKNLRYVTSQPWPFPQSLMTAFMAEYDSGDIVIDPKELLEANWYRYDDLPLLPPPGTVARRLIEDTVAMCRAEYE
ASSAY_NOTES: NAD-RNA de-capping in vitro, gel read-out, ppGpp titration
PARTICULARS: read-out: inhibition constant
pKi: −log10 of the molar value.
TEST_READOUT: pKi

{"SMILES_NOTATION": "Nc1nc2c(ncn2[C@@H]2O[C@H](COP(=O)(O)OP(=O)(O)O)[C@@H](OP(=O)(O)OP(=O)(O)O)[C@H]2O)c(=O)[nH]1", "TEST_READOUT": "pKi", "OBSERVED_RESULT": "~4.15"}

###

Test system: 70S ribosome
ASSAY_NOTES: BLI
PARTICULARS: tRNAfMet (2-fold molar excess), 10 mM Mg(OAc)2, 5'-triphosphate, 10 mM Tris-HCl pH 7.4, 60 mM NH4Cl, RelE assay also 6 mM beta-mercaptoethanol, 37 C 10 min, BLI temperature not stated
pKd: −log10 of the molar value.
TEST_READOUT: pKd

{"SEQUENCE_CODE": "AUGAGCACAAAAAAGAAACCAUUAACACAAGAGCAGCUUGAGGACGCACGUCGCCUUAAAGCAAUUUAUG [ppp-cI(1-70) leaderless mRNA]", "MEASUREMENT_TARGET": "70S ribosome", "OBSERVED_RESULT": 8.46}
